Origin of values: paper PMC9042912

I'd be grateful if you could share measured Kd for these entries.
TARGET UNDER TEST: H2-K^b (Mus musculus, UniProt P01901)
Construct: RMA-S cells were added per well to a 96-well flat-bottom plate and incubated at 30 °C overnight; endogenous in cells; host or cells: RMA-S cells (TAP-deficient), obtained from Dr. Steve Porcelli
Sequence (P01901 22-369): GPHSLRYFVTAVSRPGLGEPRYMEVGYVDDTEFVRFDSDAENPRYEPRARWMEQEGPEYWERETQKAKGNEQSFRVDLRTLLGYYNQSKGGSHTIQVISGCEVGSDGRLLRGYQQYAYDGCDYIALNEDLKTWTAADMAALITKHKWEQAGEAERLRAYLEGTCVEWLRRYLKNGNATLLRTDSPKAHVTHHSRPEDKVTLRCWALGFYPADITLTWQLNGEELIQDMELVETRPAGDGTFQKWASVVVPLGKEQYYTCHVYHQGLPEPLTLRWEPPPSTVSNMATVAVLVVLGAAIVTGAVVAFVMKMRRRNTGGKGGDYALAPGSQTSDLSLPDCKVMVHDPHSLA
Sequence (P01887 21-119 partner): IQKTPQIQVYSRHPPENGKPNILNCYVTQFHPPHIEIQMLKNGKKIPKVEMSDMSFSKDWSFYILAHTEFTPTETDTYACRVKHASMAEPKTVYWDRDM
PROCEDURE DETAILS: cell-based
No end group written: not given here.
Write the answer as a number in nM, unit excluded.

Ask | Dear colleague, I am looking for the recorded Kd of the following sequence: SIIQFEKL [Q4]
Reply | 65

Ask | Then SSIEFARL [gB498-505] ?
Reply | 32

Ask | Then SIITFEKL [T4] ?
Reply | 59
